FYI, the data here is from ChEMBL document CHEMBL2384980.

biological target: Cathepsin B (Homo sapiens, UniProt P07858); experiment: Inhibition of human liver cathepsin B
ASSAY_METRIC: Ki (nM)
One number for each entry, in nM.

Please state recorded Ki (tested on Cathepsin B (Homo sapiens, UniProt P07858)) of CC(=O)N[C@@H](CC(C)C)C(=O)N[C@@H](CC(C)C)C(=O)N[C@H](C=O)CCCNC(=N)N
5

---

target: Cathepsin B (Homo sapiens, UniProt P07858); assay: Inhibition of human liver cathepsin B using Z-RR-para-nitroanilide as substrate assessed as reversible equilibrium binding constant by Kitz-Wilson plot analysis
ASSAY_METRIC: Ki (µM)
Answers are plain numbers, in µM.

Requested read-out: Ki. Entry: CCc1ccccc1S(=O)(=O)C1CO1 (stereo unspecified)
86

---

experiment: Half life of the compound at 2.5 mM at pH 7.4 by NMR spectrophotometric analysis; type: physicochemical
ASSAY_METRIC: half-life at 2500 µM (h)
Numbers only, in h.

Query (compound): CCc1ccccc1S(=O)(=O)C1CO1 (stereo unspecified) ; field requested: half-life at 2500 µM
3.6

---

biological target: Cathepsin B (Homo sapiens); test: Time dependent inhibition of human liver cathepsin B using Z-RR-para-nitroanilide as substrate at 500 uM
Active and inactive are the calls of the source. No cut-off for these calls is given here.
ASSAY_METRIC: inhibition

Reference set, count: 6
[[record]]
molecule = "O=S(=O)(CC1CS1)c1ccccc1 (stereo not drawn)"
tgt = "Cathepsin B (Homo sapiens)"
assay_metric = "inhibition"
result = "inactive"

[[record]]
molecule = "O=S(=O)(c1cc(Cl)cc(Cl)c1)C1CO1 (stereo not drawn)"
tgt = "Cathepsin B (Homo sapiens)"
assay_metric = "inhibition"
result = "50%"

[[record]]
molecule = "COc1ccc(OC)c(S(=O)(=O)C2CO2)c1 (stereo not drawn)"
tgt = "Cathepsin B (Homo sapiens)"
assay_metric = "inhibition"
result = "25%"

[[record]]
molecule = "O=S(=O)(CC1CO1)c1ccccc1 (stereo not drawn)"
tgt = "Cathepsin B (Homo sapiens)"
assay_metric = "inhibition"
result = "inactive"

[[record]]
molecule = "COc1cccc(S(=O)(=O)C2CO2)c1 (stereo not drawn)"
tgt = "Cathepsin B (Homo sapiens)"
assay_metric = "inhibition"
result = "35%"

[[record]]
molecule = "Cc1ccc(C)c(S(=O)(=O)C2CO2)c1 (stereo not drawn)"
tgt = "Cathepsin B (Homo sapiens)"
assay_metric = "inhibition"
result = "42%"


Fill in inhibition for each of the 4 molecules listed.
1. Cc1cccc(S(=O)(=O)C2CO2)c1 (stereo not drawn)
2. CCc1ccccc1S(=O)(=O)C1CO1 (stereo not drawn)
3. O=S(=O)(c1ccc(OC(F)(F)F)cc1)C1CO1 (stereo not drawn)
4. O=S(=O)(c1ccc(Cl)cc1)C1CO1 (stereo not drawn)

1: 40%; 2: > 98%; 3: 30%; 4: 44%

// each listed molecule needs a value for inhibition
1. CCCC1OC1S(=O)(=O)c1ccccc1 (stereo not drawn)
2. O=S(=O)(c1ccccc1)C1OC1c1ccc(F)cc1 (stereo not drawn)
3. O=S(=O)(c1ccc2ccccc2c1)C1CO1 (stereo not drawn)

1. inactive
2. inactive
3. 18%
